We begin with a simple list: items and their reported IC50.
Experiment: Cytotoxicity against human epidermoid carcinoma KB cells
Type: functional, cell-based
A number alone suffices; assume µg/mL.

Prompt line: Which IC50 is listed for CCCCCC(=O)NC(c1ccccc1)[C@@H](O)C(=O)O[C@H]1C[C@@]2(O)[C@@H](OC(=O)c3ccccc3)[C@@H]3[C@]4(OC(C)=O)CO[C@@H]4C[C@H](O)[C@@]3(C)C(=O)[C@H](OC(C)=O)C(=C1C)C2(C)C (stereo not given in full) ?
Response line: 0.0053

Prompt line: Thanks! And CCCC(=O)NC(c1ccccc1)[C@@H](O)C(=O)O[C@H]1C[C@@]2(O)[C@@H](OC(=O)c3ccccc3)[C@@H]3[C@]4(OC(C)=O)CO[C@@H]4C[C@H](O)[C@@]3(C)C(=O)[C@H](OC(C)=O)C(=C1C)C2(C)C (stereo not given in full) ?
Response line: 0.016

Prompt line: Try the molecule C=C1[C@@H](OC(=O)/C=C/c2ccccc2)CC[C@]2(C)[C@@H]1C[C@@H]1C[C@H](OC(C)=O)C(C)=C([C@@H](OC(C)=O)[C@@H]2OC(C)=O)C1(C)C
Response line: 8.2

// switching to the query molecule
Prompt line: What does the record list as IC50 for C=C1[C@@H](OC(=O)CC(c2ccccc2)N(C)C)C[C@H](OC(C)=O)[C@@]2(C)[C@@H](OC(C)=O)[C@H](OC(C)=O)[C@@]3(O)C(C)=C(OC(C)=O)C[C@@H]([C@@H](OC(C)=O)[C@H]12)C3(C)C (stereo not given in full) ?
Response line: 2.6

The reported measurements were obtained from ChEMBL document CHEMBL1130376.
